All figures here come from patent US20170145112A1.

AVG IC50 (pM), TR-FRET assay of Factor D-dependent factor B activation: recorded values
- SYSTEM: Human complement Factor D, mature (human, UniProt P00746 27-253)
- Sequence (P00746 27-253): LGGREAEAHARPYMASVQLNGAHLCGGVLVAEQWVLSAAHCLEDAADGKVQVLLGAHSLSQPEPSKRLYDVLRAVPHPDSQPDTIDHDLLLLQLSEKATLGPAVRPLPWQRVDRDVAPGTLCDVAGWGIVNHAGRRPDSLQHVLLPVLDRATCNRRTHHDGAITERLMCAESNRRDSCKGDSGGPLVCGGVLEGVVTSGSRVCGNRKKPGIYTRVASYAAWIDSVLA
- ASSAY_EXPLANATION: cell-based or functional assay
Give the value in pM but do not write pM after it.

BINDER	READOUT_VALUE
AFD.v14.C + PEG tetramer (Fab, V domains shown, C-terminal Cys linked through maleimide to a PEG tetramer) VH: EVQLVQSGPELKKPGASVKVSCKASGYTFTNYGMNWVRQAPGQGLEWMGWINTYTGETTYAEDFKGRFVFSLDTSVSTAYLQISSLKAEDTAVYYCEREGGVSNWGQGTLVTVSS VL: DIQVTQSPSSLSASVGDRVTITCITSTSIESDMNWYQQKPGKVPKLLISGGNTLRPGVPSRFSGSGSGTDFTLTISSLQPEDVATYYCLQSDSLPYTFGQGTKVEIKR	14.8
AFD.v8.C + PEG tetramer (Fab, V domains shown, C-terminal Cys linked through maleimide to 40K-tetramer-PEG (Sunbright PTE-400MA)) VH: EVQLVQSGPELKKPGASVKVSCKASGYTFTNYGMNWVRQAPGQGLEWMGWINTYTGETTYAEDFKGRFVFSLDTSVSTAYLQISSLKAEDTAVYYCEREGGVNNWGQGTLVTVSS VL: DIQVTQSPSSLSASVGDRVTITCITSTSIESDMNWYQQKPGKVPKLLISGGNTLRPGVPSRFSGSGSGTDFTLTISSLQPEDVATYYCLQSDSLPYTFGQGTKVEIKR	11
AFD.v14 Fab (Fab, V domains shown, Variant of lampalizumab; also called SIESD.N103S) VH: EVQLVQSGPELKKPGASVKVSCKASGYTFTNYGMNWVRQAPGQGLEWMGWINTYTGETTYAEDFKGRFVFSLDTSVSTAYLQISSLKAEDTAVYYCEREGGVSNWGQGTLVTVSS VL: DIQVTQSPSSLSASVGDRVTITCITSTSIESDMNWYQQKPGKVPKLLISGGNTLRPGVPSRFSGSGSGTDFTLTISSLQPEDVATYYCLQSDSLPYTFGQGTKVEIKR	34

IN: Using the record for AFD.v8 Fab (Fab, V domains shown, Variant of lampalizumab) VH: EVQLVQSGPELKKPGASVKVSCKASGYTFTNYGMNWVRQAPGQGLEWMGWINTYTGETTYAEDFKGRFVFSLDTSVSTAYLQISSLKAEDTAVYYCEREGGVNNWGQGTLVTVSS VL: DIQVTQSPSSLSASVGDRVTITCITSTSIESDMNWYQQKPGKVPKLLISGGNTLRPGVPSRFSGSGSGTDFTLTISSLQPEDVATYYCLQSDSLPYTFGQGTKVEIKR , report its AVG IC50 (pM), TR-FRET assay of Factor D-dependent factor B activation.
OUT: 27.6

IN: Using the record for hu20D12.v2.0 Fab (Fab, V domains shown, Fab expressed in E. coli; also called Hu20D12.v1.N54S; hu20D12.v1.N54S) VH: EVQLVQSGAEVKKPGASVKVSCKASGYTFTSYYMYWVRQAPGQGLEWIGEINPTSGGTNFNEKFKSRATLTVDTSTSTAYLELSSLRSEDTAVYYCAREGGFAYWGQGTLVTVSS VL: DIQMTQSPSSLSASVGDRVTITCKASQNVDTDVAWFQQKPGKAPKGLIYSASSRYSGVPSRFSGSGSGTDFTLTISSLQPEDFATYYCQQYNNYPLTFGQGTKVEIKR , report its AVG IC50 (pM), TR-FRET assay of Factor D-dependent factor B activation.
OUT: 59.2
